system: Mus musculus; assay: Narcotic analgesic activity in sc dosed mouse by Nilsen test; format: functional
reported-property: ED50 (mg/kg)
Numbers only here, please. The scale is mg/kg.

* C=CCN1CC[C@]23c4c5ccc(O)c4O[C@H]2[C@@H](O)C=C[C@H]3[C@H]1C5 [NALORPHINE] | 4.8
* CN1CC[C@]23c4c5ccc(O)c4O[C@H]2[C@@H](O)C=C[C@H]3[C@H]1C5 [MORPHINE] | 0.8
* CC[C@H]1[C@H]2Cc3ccc(O)cc3[C@@]1(C)CCN2CC=C(C)C (racemic) | 26.8

Query compound follows.
Param item = CC[C@H]1[C@H]2Cc3ccc(O)cc3[C@@]1(C)CCN2CC1CCC1 (racemic) ; retrieve measured ED50.
2.9

---

Each record here notes measured ED50.
system: Mus musculus; test: Narcotic analgesic activity in sc dosed mouse assessed as suppression of phenylquinone-induced writhing; assay type: functional
Reply numerically in mg/kg, unit not repeated.

• C=CCCCN1CC[C@]2(C)c3cc(O)ccc3C[C@@H]1[C@@H]2CC (racemic) = 2.56
• CC[C@H]1[C@H]2Cc3ccc(O)cc3[C@@]1(C)CCN2C (racemic) = 0.2
• CCCCCN1CC[C@]2(C)c3cc(O)ccc3C[C@@H]1[C@@H]2CC (racemic) = 1.8
• CCCCCCCN1CC[C@]2(C)c3cc(O)ccc3C[C@@H]1[C@@H]2CC (racemic) = 7.3
• CC[C@H]1[C@H]2Cc3ccc(O)cc3[C@@]1(C)CCN2CC1CCC1 (racemic) = 0.31
• C=CCN1CC[C@]2(C)c3cc(O)ccc3C[C@@H]1[C@@H]2CC (racemic) = 15.7

Look up ED50 with Mus musculus for this compound: CCCCCCN1CC[C@]2(C)c3cc(O)ccc3C[C@@H]1[C@@H]2CC (racemic)
5.7

Recall the recorded ED50 for CCCCN1CC[C@]2(C)c3cc(O)ccc3C[C@@H]1[C@@H]2CC (racemic) with Mus musculus and state it.
13

What reported ED50 corresponds to CC[C@H]1[C@H]2Cc3ccc(O)cc3[C@@]1(C)CCN2CC1CC1 (racemic) on Mus musculus?
2.1

Checklist item: ED50 tested on Mus musculus, entry CCCCCCCCN1CC[C@]2(C)c3cc(O)ccc3C[C@@H]1[C@@H]2CC (racemic) , value?
15.1

---

test system: Rattus norvegicus; test: Narcotic antagonist activity in sc dosed rat by tail-flick test; format: functional
The source made the active and inactive calls. The rule behind the calls is not given here.
reported-property: AD50

// known answers, use as guide
* CCCCCCCN1CC[C@]2(C)c3cc(O)ccc3C[C@@H]1[C@@H]2CC (racemic) | inactive
* CN1CC[C@]23c4c5ccc(O)c4O[C@H]2[C@@H](O)C=C[C@H]3[C@H]1C5 [MORPHINE] | inactive
* CCCCN1CC[C@]2(C)c3cc(O)ccc3C[C@@H]1[C@@H]2CC (racemic) | 2.38 mg/kg
* CCCCCCCCN1CC[C@]2(C)c3cc(O)ccc3C[C@@H]1[C@@H]2CC (racemic) | inactive
* CC[C@H]1[C@H]2Cc3ccc(O)cc3[C@@]1(C)CCN2CC (racemic) | 5.5 mg/kg

Form entry - test system: Rattus norvegicus; read-out: AD50; compound: CC[C@H]1[C@H]2Cc3ccc(O)cc3[C@@]1(C)CCN2CC1CCC1 (racemic)
0.477 mg/kg

API: value(readout= AD50, system= Rattus norvegicus, query= C=CCN1CC[C@]2(C)c3cc(O)ccc3C[C@@H]1[C@@H]2CC (racemic) )
0.6 mg/kg
